biological target: T1, membrane-bound human MSLN (on CHOK1-hu MSLN cells and endogenously on COV644 cells) (human, UniProt Q13421 296-598); assay: flow cytometry on COV644 cells
T1 construct: whole, on cells; The assay field of each row says which cell line carried the protein; also called mesothelin; cell surface MSLN
T1 sequence (Q13421 other isoform, or with tags, fused parts or gaps limits assumed): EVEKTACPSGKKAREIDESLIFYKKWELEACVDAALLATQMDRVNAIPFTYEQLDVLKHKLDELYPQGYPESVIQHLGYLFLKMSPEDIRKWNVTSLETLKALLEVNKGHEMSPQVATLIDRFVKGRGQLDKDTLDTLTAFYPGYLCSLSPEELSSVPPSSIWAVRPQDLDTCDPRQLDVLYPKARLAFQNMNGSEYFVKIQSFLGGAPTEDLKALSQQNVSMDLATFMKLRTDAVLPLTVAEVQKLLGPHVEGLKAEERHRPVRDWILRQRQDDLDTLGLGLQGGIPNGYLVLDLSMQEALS
// reported TOP (MFI) per item
measured.property: TOP (MFI)

binder="PR300159-9 (antibody, V domains shown, PTM removal variant of PR300159: heavy chain G33A and D54E, light chain S93A) VH: QVQLVESGGGVVQPGRSLRLSCAASGFTFSSDAMNWVRQAPGKGLEWVAVIWNEGSNKYYADSVKGRFTISRDNSKNTLYLQMNSLRAEDTAVYYCARDRGPLWPLDYWGQGTLVTVSS VL: DIQMTQSPSTLSASVGDRVTITCRASQSISRWLAWYQQKPGKAPKLLIYKASSLESGVPSRFSGSGSGTEFTLTISNLQPDDFATFYCQQYNAYSRTFGQGTKVEIKR" value_measured=1.56e+06
binder="PR300159-1 (antibody, V domains shown, PTM removal variant of PR300159: heavy chain G33A and D54E, light chain N92S) VH: QVQLVESGGGVVQPGRSLRLSCAASGFTFSSDAMNWVRQAPGKGLEWVAVIWNEGSNKYYADSVKGRFTISRDNSKNTLYLQMNSLRAEDTAVYYCARDRGPLWPLDYWGQGTLVTVSS VL: DIQMTQSPSTLSASVGDRVTITCRASQSISRWLAWYQQKPGKAPKLLIYKASSLESGVPSRFSGSGSGTEFTLTISNLQPDDFATFYCQQYSSYSRTFGQGTKVEIKR" value_measured=2.34e+06
binder="PR300159 (antibody, V domains shown, Parental antibody from Harbour H2L2 mice) VH: QVQLVESGGGVVQPGRSLRLSCAASGFTFSSDGMNWVRQAPGKGLEWVAVIWNDGSNKYYADSVKGRFTISRDNSKNTLYLQMNSLRAEDTAVYYCARDRGPLWPLDYWGQGTLVTVSS VL: DIQMTQSPSTLSASVGDRVTITCRASQSISRWLAWYQQKPGKAPKLLIYKASSLESGVPSRFSGSGSGTEFTLTISNLQPDDFATFYCQQYNSYSRTFGQGTKVEIKR" value_measured=2.07e+06
binder="PR300159-5 (antibody, V domains shown, PTM removal variant of PR300159: light chain N92Q) VH: QVQLVESGGGVVQPGRSLRLSCAASGFTFSSDGMNWVRQAPGKGLEWVAVIWNDGSNKYYADSVKGRFTISRDNSKNTLYLQMNSLRAEDTAVYYCARDRGPLWPLDYWGQGTLVTVSS VL: DIQMTQSPSTLSASVGDRVTITCRASQSISRWLAWYQQKPGKAPKLLIYKASSLESGVPSRFSGSGSGTEFTLTISNLQPDDFATFYCQQYQSYSRTFGQGTKVEIKR" value_measured=2.13e+06
